Just for reference, patent US8461124B2 is where these values come from.

tested on: complementary RNA; assay: Thermal denaturation (UV melting) of AON duplexes with complementary RNA; format: binding; details: 1 μM of each strand, medium salt buffer pH 7.5, average of at least three runs
In this section, each of the substances is paired with its reported Tm/° C. with RNA.

| substance | Tm/° C. with RNA [°C] |
| --- | --- |
| 3′-d(CTTCTTTTTT(LNA)ACTTC)-5′ (antisense CTTCTTTTTTACTTC; LNA-T at position 10 from 3'-end, chemistry not fully specified) [AON 5, LNA-T modified AON, position 10 from 3′-end] | 49 |
| 3′-d(CTTCTTTT(6-carbo)TTACTTC)-5′ [AON 12] | 45.5 |
| 3′-d(CTTCT T(LNA)TTTTACTTC)-5′ [AON 3] | 49 |
| 3′-d(CTT(LNA)CTTTTTTACTTC)-5′ (antisense CTTCTTTTTTACTTC; LNA-T at position 3 from 3'-end, chemistry not fully specified) [AON 2, LNA-T modified AON, position 3 from 3′-end] | 48 |
| 3′-d(CTT(5-carbo)CTTTTTTACTTC)-5′ (antisense CTTCTTTTTTACTTC; carbocyclic-LNA-T at position 3 from 3'-end, chemistry not fully specified) [AON 6, carbocyclic-LNA-T modified AON, position 3 from 3′-end] | 47.5 |
| 3′-d(CTTCTTTTTT(6-carbo)ACTTC)-5′ [AON 13] | 45.5 |
| 3′-d(CTT(6-carbo)CTTTTTTACTTC)-5′ (antisense CTTCTTTTTTACTTC; carbocyclic-ENA-T at position 3 from 3'-end, chemistry not fully specified) [AON 10, carbocyclic-ENA-T modified AON, position 3 from 3′-end] | 45.5 |
| 3′-d(CTTCTT(aza-ENA)TTTTACTTC)-5′ (antisense CTTCTTTTTTACTTC; aza-ENA-T at position 6 from 3'-end, chemistry not fully specified) [AON 15, aza-ENA-T modified AON, position 6 from 3′-end] | 46.5 |
| 3′-d(CTTCTTTTTT(5-carbo)ACTTC)-5′ (antisense CTTCTTTTTTACTTC; carbocyclic-LNA-T at position 10 from 3'-end, chemistry not fully specified) [AON 9, carbocyclic-LNA-T modified AON, position 10 from 3′-end] | 47.5 |
| 3′-d(CTTCTTTT(LNA)TTACTTC)-5′ (antisense CTTCTTTTTTACTTC; LNA-T at position 8 from 3'-end, chemistry not fully specified) [AON 4, LNA-T modified AON, position 8 from 3′-end] | 49 |
| 3′-d(CTTCTT(5-carbo)TTTTACTTC)-5′ (antisense CTTCTTTTTTACTTC; carbocyclic-LNA-T at position 6 from 3'-end, chemistry not fully specified) [AON 7, carbocyclic-LNA-T modified AON, position 6 from 3′-end] | 49 |
